DC50 by entry:
target of assay: SMARCA2 (Homo sapiens, UniProt P51531)
Construct: SMARCA2-HiBiT knock-in Hela monoclonal cell (CS302366) and SMARCA4-HiBiT knock-in Hela monoclonal cell (CS3023226) were purchased from Promega; host or cells: HeLa SMARCA2-HiBiT knock-in monoclonal cells (heterozygous knock-in)
Sequence (P51531 whole entry): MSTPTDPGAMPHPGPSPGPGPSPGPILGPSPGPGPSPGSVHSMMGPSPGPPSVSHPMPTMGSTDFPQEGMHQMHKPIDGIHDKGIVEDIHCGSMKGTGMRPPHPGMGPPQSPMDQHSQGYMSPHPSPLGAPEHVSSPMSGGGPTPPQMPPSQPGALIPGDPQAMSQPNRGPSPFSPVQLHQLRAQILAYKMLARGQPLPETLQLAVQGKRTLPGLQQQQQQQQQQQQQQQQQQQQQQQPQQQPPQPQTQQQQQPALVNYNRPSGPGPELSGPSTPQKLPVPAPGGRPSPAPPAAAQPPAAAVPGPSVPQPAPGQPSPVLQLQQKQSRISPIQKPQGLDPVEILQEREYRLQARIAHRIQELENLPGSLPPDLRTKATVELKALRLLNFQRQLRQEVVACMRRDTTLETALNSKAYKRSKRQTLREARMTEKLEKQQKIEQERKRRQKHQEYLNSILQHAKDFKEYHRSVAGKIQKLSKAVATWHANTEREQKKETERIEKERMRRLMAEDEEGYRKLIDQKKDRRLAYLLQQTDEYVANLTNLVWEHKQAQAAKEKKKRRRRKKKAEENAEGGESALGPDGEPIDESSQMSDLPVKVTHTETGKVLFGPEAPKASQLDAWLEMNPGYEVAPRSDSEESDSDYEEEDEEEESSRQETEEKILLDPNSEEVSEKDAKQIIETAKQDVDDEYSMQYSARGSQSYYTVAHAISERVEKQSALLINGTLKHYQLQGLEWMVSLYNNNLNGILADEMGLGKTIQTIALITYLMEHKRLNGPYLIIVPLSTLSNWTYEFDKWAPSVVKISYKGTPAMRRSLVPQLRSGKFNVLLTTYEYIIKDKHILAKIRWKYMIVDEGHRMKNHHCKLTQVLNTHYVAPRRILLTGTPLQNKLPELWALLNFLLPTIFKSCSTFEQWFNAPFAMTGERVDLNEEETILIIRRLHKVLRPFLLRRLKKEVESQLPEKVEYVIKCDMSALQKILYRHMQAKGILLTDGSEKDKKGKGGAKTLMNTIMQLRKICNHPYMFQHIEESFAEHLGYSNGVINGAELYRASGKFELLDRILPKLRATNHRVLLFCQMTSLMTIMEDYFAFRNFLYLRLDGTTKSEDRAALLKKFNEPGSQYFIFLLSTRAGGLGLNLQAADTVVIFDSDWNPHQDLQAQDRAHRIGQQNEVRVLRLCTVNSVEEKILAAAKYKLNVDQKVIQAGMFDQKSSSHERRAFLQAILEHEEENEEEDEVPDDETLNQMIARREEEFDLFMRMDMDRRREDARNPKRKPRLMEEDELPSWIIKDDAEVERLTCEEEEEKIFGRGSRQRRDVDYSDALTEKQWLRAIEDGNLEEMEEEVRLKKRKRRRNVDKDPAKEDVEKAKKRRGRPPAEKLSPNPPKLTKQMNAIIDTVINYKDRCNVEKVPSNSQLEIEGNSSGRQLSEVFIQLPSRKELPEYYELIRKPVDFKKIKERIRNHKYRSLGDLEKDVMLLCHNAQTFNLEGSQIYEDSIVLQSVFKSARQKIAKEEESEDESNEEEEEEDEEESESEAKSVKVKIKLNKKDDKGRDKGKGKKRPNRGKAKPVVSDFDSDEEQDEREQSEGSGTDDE
assay method text: SMARCA2 HiBiT degradation assay in HeLa cells
Format: cell-based
run conditions: 18 hours incubation, Nano-Glo HiBiT Lytic detection

# count of solved cases: 4
INSERT INTO results (compound, property_label, result_value) VALUES
  ('CC[C@@]12CNc3nnc(-c4ccccc4O)cc3N1C[C@H](Oc1ccc(CN3CCC(c4ccc(C5CCC(=O)NC5=O)cc4)CC3)cn1)C2 (stereo partly drawn)', 'DC50', '< 100 nM'),
  ('CC[C@]12CNc3nnc(-c4ccccc4O)cc3N1C[C@H](Oc1ccc(CN3CCN(c4ccc(C(=O)NC5CCC(=O)NC5=O)cc4)CC3)cn1)C2 (stereo partly drawn)', 'DC50', '< 100 nM'),
  ('C[C@@H]1CN(CC2CCN(c3ccc4cn(C5CCC(=O)NC5=O)nc4c3)CC2)C[C@H](C)N1C(=O)N1CCN2c3cc(-c4ccccc4O)nnc3NC[C@H]2C1 (stereo partly drawn)', 'DC50', '< 100 nM'),
  ('CC[C@]12CNc3nnc(-c4ccccc4O)cc3N1C[C@H](Oc1ccc(CN3CCN(c4ccc(C(=O)NC5CCC(=O)NC5=O)c(F)c4)CC3)cn1)C2 (stereo partly drawn)', 'DC50', '100 to 1000 nM');

Param request: DC50 | system SMARCA2 (Homo sapiens, UniProt P51531) | item O=C1CCC(c2ccc(C3CCN(Cc4ccc(O[C@H]5CN6c7cc(-c8ccccc8O)nnc7NC[C@@]6(C(F)F)C5)nc4)CC3)cc2)C(=O)N1 (stereo partly drawn)
< 100 nM

Param request: DC50 | system SMARCA2 (Homo sapiens, UniProt P51531) | item C[C@@H]1CN(CC2CCN(c3ccnc(C(=O)NC4CCC(=O)NC4=O)c3)CC2)C[C@H](C)N1C(=O)N1CCN2c3cc(-c4ccccc4O)nnc3NC[C@H]2C1 (stereo partly drawn)
< 100 nM

====

target of assay: SMARCA4 (Homo sapiens, UniProt P51532)
Construct: SMARCA2-HiBiT knock-in Hela monoclonal cell (CS302366) and SMARCA4-HiBiT knock-in Hela monoclonal cell (CS3023226) were purchased from Promega; host or cells: HeLa SMARCA4-HiBiT knock-in monoclonal cells (heterozygous knock-in)
Sequence (P51532 whole entry): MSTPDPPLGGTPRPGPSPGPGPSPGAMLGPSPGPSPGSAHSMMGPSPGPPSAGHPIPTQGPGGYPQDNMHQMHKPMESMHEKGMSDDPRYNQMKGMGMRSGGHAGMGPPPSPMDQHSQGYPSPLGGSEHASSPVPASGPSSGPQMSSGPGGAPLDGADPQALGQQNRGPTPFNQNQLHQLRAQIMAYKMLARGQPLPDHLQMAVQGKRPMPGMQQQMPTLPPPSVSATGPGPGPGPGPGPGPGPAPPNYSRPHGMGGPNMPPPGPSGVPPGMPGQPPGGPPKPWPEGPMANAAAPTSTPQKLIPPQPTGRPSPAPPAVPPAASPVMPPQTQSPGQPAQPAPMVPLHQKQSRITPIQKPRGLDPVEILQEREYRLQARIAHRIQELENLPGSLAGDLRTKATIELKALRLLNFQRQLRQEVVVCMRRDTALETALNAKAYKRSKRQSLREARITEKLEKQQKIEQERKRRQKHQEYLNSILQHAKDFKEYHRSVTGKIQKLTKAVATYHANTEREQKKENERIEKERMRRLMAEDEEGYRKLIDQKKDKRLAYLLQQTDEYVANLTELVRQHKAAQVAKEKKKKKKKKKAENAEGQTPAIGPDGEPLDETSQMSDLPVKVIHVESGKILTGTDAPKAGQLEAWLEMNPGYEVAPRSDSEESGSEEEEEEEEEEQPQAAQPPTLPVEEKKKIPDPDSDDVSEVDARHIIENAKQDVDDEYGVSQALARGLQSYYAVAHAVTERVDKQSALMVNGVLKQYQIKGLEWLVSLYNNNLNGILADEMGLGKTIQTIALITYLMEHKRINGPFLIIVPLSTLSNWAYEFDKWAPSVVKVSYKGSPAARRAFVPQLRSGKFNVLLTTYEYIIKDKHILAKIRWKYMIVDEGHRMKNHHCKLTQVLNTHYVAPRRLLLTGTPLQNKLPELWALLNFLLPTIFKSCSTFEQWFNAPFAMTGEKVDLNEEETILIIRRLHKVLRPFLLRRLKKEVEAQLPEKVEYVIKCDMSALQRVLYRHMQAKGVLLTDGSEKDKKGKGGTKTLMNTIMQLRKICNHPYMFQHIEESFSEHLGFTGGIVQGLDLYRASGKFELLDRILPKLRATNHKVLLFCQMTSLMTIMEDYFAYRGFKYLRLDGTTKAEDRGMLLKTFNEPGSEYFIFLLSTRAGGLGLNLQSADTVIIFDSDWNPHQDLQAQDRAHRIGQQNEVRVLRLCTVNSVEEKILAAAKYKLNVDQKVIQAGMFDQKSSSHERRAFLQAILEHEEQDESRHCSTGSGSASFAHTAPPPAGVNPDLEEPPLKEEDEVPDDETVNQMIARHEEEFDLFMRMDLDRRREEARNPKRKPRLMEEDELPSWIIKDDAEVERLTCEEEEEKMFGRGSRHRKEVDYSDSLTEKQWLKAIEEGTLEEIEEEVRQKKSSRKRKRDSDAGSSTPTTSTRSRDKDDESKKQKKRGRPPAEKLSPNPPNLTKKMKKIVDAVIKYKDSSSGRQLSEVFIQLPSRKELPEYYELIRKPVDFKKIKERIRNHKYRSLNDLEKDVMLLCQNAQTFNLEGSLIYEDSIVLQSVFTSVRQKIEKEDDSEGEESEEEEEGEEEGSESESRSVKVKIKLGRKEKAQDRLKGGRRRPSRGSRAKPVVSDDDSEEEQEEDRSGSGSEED
assay method text: SMARCA4 HiBiT degradation assay in HeLa cells
Format: cell-based
run conditions: 18 hours incubation, Nano-Glo HiBiT Lytic detection
property label: Dmax

INSERT INTO results (molecule, result_value) VALUES
  ('C[C@@H]1CN(CC2CCN(c3ccc4cn(C5CCC(=O)NC5=O)nc4c3)CC2)C[C@H](C)N1C(=O)N1CCN2c3cc(-c4ccccc4O)nnc3NC[C@H]2C1 (some centres unmarked)', '50 to 75%'),
  ('CC[C@]12CNc3nnc(-c4ccccc4O)cc3N1C[C@H](Oc1ccc(CN3CCN(c4ccc(NC5CCC(=O)NC5=O)cc4)CC3)cn1)C2 (some centres unmarked)', '> 75%'),
  ('CC[C@]12CNc3nnc(-c4ccccc4O)cc3N1C[C@H](Oc1ccc(CN3CCN(c4ccc(N5CCC(=O)NC5=O)cc4)CC3)cn1)C2', '50 to 75%');

Consider the molecule C[C@@H]1CN(CC2CCN(c3ccc4ncn(C5CCC(=O)NC5=O)c(=O)c4c3)CC2)C[C@H](C)N1C(=O)N1CCN2c3cc(-c4ccccc4O)nnc3NC[C@H]2C1 (some centres unmarked) . State its measured Dmax.
50 to 75%

Consider the molecule C[C@@H]1CN(CC2CCN(c3ccc4cnn(C5CCC(=O)NC5=O)c4c3)CC2)C[C@H](C)N1C(=O)N1CCN2c3cc(-c4ccccc4O)nnc3NC[C@H]2C1 (some centres unmarked) . State its measured Dmax.
< 50%

Consider the molecule O=C1CCC(n2ncc3ccc(N4CCC(CN5C[C@@H]6[C@H](C5)[C@H]6CN5CCN6c7cc(-c8ccccc8O)nnc7NC[C@H]6C5)CC4)cc32)C(=O)N1 (some centres unmarked) . State its measured Dmax.
< 50%

Consider the molecule CC[C@]12CNc3nnc(-c4ccccc4O)cc3N1C[C@H](Oc1ccc(CN3CCN(c4ccc(C5CCC(=O)NC5=O)cc4)CC3)cn1)C2 (some centres unmarked) . State its measured Dmax.
> 75%

Consider the molecule CC[C@]12CNc3nnc(-c4ccccc4O)cc3N1C[C@H](Oc1ccc(CN3CCN(c4ccc(C(=O)NC5CCC(=O)NC5=O)c(F)c4)CC3)cn1)C2 (some centres unmarked) . State its measured Dmax.
< 50%

Consider the molecule CC[C@]12CNc3nnc(-c4ccccc4O)cc3N1C[C@H](Oc1ccc(CN3CCN(c4ccc(C(=O)NC5CCC(=O)NC5=O)cc4)CC3)cn1)C2 (some centres unmarked) . State its measured Dmax.
< 50%

Consider the molecule CC[C@@]12CNc3nnc(-c4ccccc4O)cc3N1C[C@H](Oc1ccc(CN3CCC(c4ccc(C5CCC(=O)NC5=O)cc4)CC3)cn1)C2 (some centres unmarked) . State its measured Dmax.
> 75%

Consider the molecule O=C1CCC(c2ccc(C3CCN(Cc4ccc(O[C@H]5CN6c7cc(-c8ccccc8O)nnc7NC[C@@]6(C(F)F)C5)nc4)CC3)cc2)C(=O)N1 (some centres unmarked) . State its measured Dmax.
> 75%

====

DC50 by entry:
target of assay: SMARCA4 (Homo sapiens, UniProt P51532)
Construct: SMARCA2-HiBiT knock-in Hela monoclonal cell (CS302366) and SMARCA4-HiBiT knock-in Hela monoclonal cell (CS3023226) were purchased from Promega; host or cells: HeLa SMARCA4-HiBiT knock-in monoclonal cells (heterozygous knock-in)
assay method text: SMARCA4 HiBiT degradation assay in HeLa cells
Type: cell-based
run conditions: 18 hours incubation, Nano-Glo HiBiT Lytic detection

INSERT INTO results (compound, result_value) VALUES
  ('C[C@@H]1CN(CC2CCN(c3ccc(C(=O)NC4CCC(=O)NC4=O)c(F)c3)CC2)C[C@H](C)N1C(=O)N1CCN2c3cc(-c4ccccc4O)nnc3NC[C@H]2C1 (stereo partly drawn)', '> 1000 nM'),
  ('O=C1CCC(n2ncc3ccc(N4CCC(CN5C[C@@H]6[C@H](C5)[C@H]6CN5CCN6c7cc(-c8ccccc8O)nnc7NC[C@H]6C5)CC4)cc32)C(=O)N1 (stereo partly drawn)', '> 1000 nM'),
  ('C[C@@H]1CN(CC2CCN(c3ccc4c(=O)n(C5CCC(=O)NC5=O)ncc4c3)CC2)C[C@H](C)N1C(=O)N1CCN2c3cc(-c4ccccc4O)nnc3NC[C@H]2C1 (stereo partly drawn)', '100 to 1000 nM'),
  ('CC[C@]12CNc3nnc(-c4ccccc4O)cc3N1C[C@H](Oc1ccc(CN3CCN(c4ccc(C(=O)NC5CCC(=O)NC5=O)c(F)c4)CC3)cn1)C2 (stereo partly drawn)', '> 1000 nM'),
  ('CC[C@@]12CNc3nnc(-c4ccccc4O)cc3N1C[C@H](Oc1ccc(CN3CCC(c4ccc(C5CCC(=O)NC5=O)cc4)CC3)cn1)C2 (stereo partly drawn)', '< 100 nM');

--- query ---
Param request: DC50 | system SMARCA4 (Homo sapiens, UniProt P51532) | item C[C@@H]1CN(CC2CCN(c3ccc4cnn(C5CCC(=O)NC5=O)c4c3)CC2)C[C@H](C)N1C(=O)N1CCN2c3cc(-c4ccccc4O)nnc3NC[C@H]2C1 (stereo partly drawn)
> 1000 nM

====

target of assay: SMARCA2 (Homo sapiens)
Construct: SMARCA2-HiBiT knock-in Hela monoclonal cell (CS302366) and SMARCA4-HiBiT knock-in Hela monoclonal cell (CS3023226) were purchased from Promega; host or cells: HeLa SMARCA2-HiBiT knock-in monoclonal cells (heterozygous knock-in)
assay method text: SMARCA2 HiBiT degradation assay in HeLa cells
Type: cell-based
run conditions: 18 hours incubation, Nano-Glo HiBiT Lytic detection
property label: DC50

# count of solved cases: 5
INSERT INTO measurements (compound, result_value) VALUES
  ('CC[C@]12CNc3nnc(-c4ccccc4O)cc3N1C[C@H](Oc1ccc(CN3CCN(c4ccc(NC5CCC(=O)NC5=O)cc4)CC3)cn1)C2 (stereo partly shown)', '< 100 nM'),
  ('CC[C@]12CNc3nnc(-c4ccccc4O)cc3N1C[C@H](Oc1ccc(CN3CCN(c4ccc(N5CCC(=O)NC5=O)cc4)CC3)cn1)C2', '100 to 1000 nM'),
  ('O=C1CCC(n2ncc3ccc(N4CCC(CN5C[C@@H]6[C@H](C5)[C@H]6CN5CCN6c7cc(-c8ccccc8O)nnc7NC[C@H]6C5)CC4)cc32)C(=O)N1 (stereo partly shown)', '100 to 1000 nM'),
  ('C[C@@H]1CN(CC2CCN(c3ccc4ncn(C5CCC(=O)NC5=O)c(=O)c4c3)CC2)C[C@H](C)N1C(=O)N1CCN2c3cc(-c4ccccc4O)nnc3NC[C@H]2C1 (stereo partly shown)', '< 100 nM'),
  ('CC[C@]12CNc3nnc(-c4ccccc4O)cc3N1C[C@H](Oc1ccc(CN3CCN(c4ccc(NC5CCC(=O)NC5=O)cc4F)CC3)cn1)C2 (stereo partly shown)', '< 100 nM');

Consider the compound C[C@@H]1CN(CC2CCN(c3ccc4cnn(C5CCC(=O)NC5=O)c4c3)CC2)C[C@H](C)N1C(=O)N1CCN2c3cc(-c4ccccc4O)nnc3NC[C@H]2C1 (stereo partly shown) . State its measured DC50.
100 to 1000 nM

Consider the compound C[C@@H]1CN(CC2CCN(c3ccc4c(=O)n(C5CCC(=O)NC5=O)ncc4c3)CC2)C[C@H](C)N1C(=O)N1CCN2c3cc(-c4ccccc4O)nnc3NC[C@H]2C1 (stereo partly shown) . State its measured DC50.
< 100 nM
